From: ChEMBL document CHEMBL1133009

# target.desc: Voltage-gated L-type calcium channel (Rattus norvegicus, UniProt P22002+Q02485+P27732)
# test.description: Inhibition of [3H](+)-PN200-110 binding to calcium channels of rat GH4C1 cells.
# Format: cell-based
# stated.conditions: gh4-c1
quantity.kind: Ki (nM)

a = COC(=O)C1=C(C)NC(C)=C(C(=O)OCCCCCCCC[N+](C)(C)C)[C@@H]1c1cccc([N+](=O)[O-])c1.[I-]
b = COC(=O)C1=C(C)NC(C)=C(C(=O)OCC[N+](C)(C)C)[C@H]1c1cccc([N+](=O)[O-])c1.[I-]
c = COC(=O)C1=C(C)NC(C)=C(C(=O)OCCCCCCCC[N+](C)(C)C)C1c1cccc([N+](=O)[O-])c1.[I-] (racemic)
d = COC(=O)C1=C(C)NC(C)=C(C(=O)OCCCCCCCC[N+](C)(C)C)[C@H]1c1cccc([N+](=O)[O-])c1.[I-]
Please list these compounds in decreasing order of Ki. Write the labels in rank order as requested.
b, a, c, d

###

# target.desc: Voltage-gated L-type calcium channel (Rattus norvegicus, UniProt P22002+Q02485+P27732)
# test.description: Inhibition of [3H](+)-PN200-110 binding to calcium channels of rat cerebral cortex membrane.
# Format: tissue-based
quantity.kind: Ki (nM)

COC(=O)C1=C(C)NC(C)=C(C(=O)OCC[N+](C)(C)C)[C@H]1c1cccc([N+](=O)[O-])c1.[I-]
1246
COC(=O)C1=C(C)NC(C)=C(C(=O)OCCCCCCCC[N+](C)(C)C)[C@H]1c1cccc([N+](=O)[O-])c1.[I-]
24.6
COC(=O)C1=C(C)NC(C)=C(C(=O)OCCCCCCCC[N+](C)(C)C)C1c1cccc([N+](=O)[O-])c1.[I-] (racemic)
37.2
COC(=O)C1=C(C)NC(C)=C(C(=O)OCCCCCCCC[N+](C)(C)C)[C@@H]1c1cccc([N+](=O)[O-])c1.[I-]
717.8

I = COC(=O)C1=C(C)NC(C)=C(C(=O)OCC[N+](C)(C)C)C1c1cccc([N+](=O)[O-])c1.[I-] (racemic)
II = COC(=O)C1=C(C)NC(C)=C(C(=O)OCC[N+](C)(C)C)[C@@H]1c1cccc([N+](=O)[O-])c1.[I-]
Smaller Ki value? Options are I and II // caller expects the label of the chosen entry
I
(I: 1372 nM, II: 14013 nM)

###

# target.desc: Voltage-gated L-type calcium channel (Rattus norvegicus, UniProt P22002+Q02485+P27732)
# test.description: Pseudo Hill coefficient for inhibition of [3H](+)-PN200-110 binding to GH4C1 cells
# Assay type: cell-based
# stated.conditions: gh4-c1
quantity.kind: nH

COC(=O)C1=C(C)NC(C)=C(C(=O)OCC[N+](C)(C)C)[C@H]1c1cccc([N+](=O)[O-])c1.[I-]
0.9
COC(=O)C1=C(C)NC(C)=C(C(=O)OCCCCCCCC[N+](C)(C)C)C1c1cccc([N+](=O)[O-])c1.[I-] (racemic)
1.5
COC(=O)C1=C(C)NC(C)=C(C(=O)OCCCCCCCC[N+](C)(C)C)[C@@H]1c1cccc([N+](=O)[O-])c1.[I-]
1.2
COC(=O)C1=C(C)NC(C)=C(C(=O)OCCCCCCCC[N+](C)(C)C)[C@H]1c1cccc([N+](=O)[O-])c1.[I-]
1.3

a = COC(=O)C1=C(C)NC(C)=C(C(=O)OCC[N+](C)(C)C)C1c1cccc([N+](=O)[O-])c1.[I-] (racemic)
b = COC(=O)C1=C(C)NC(C)=C(C(=O)OCC[N+](C)(C)C)[C@@H]1c1cccc([N+](=O)[O-])c1.[I-]
Given a and b , report the one with the higher recorded nH. Select an item and report its label.
a
